Origin of values: PubChem BioAssay (NCI)

I'd be grateful if you could share measured TGI for these entries.
# Tested on: RPMI-8226 leukemia
# Test Protocol: NCI tumour cell line growth inhibition, 48 h

Field: TGI. Fill in for each record below.
1. CC(=O)OCC1OC(n2c(-c3ccc(C)cc3)cc(-c3ccccc3)c(C#N)c2=S)C(OC(C)=O)C(OC(C)=O)C1OC(C)=O (stereo unspecified)
2. Cn1c(-c2cccc([N+](=O)[O-])c2)[n+](C)c2ccccc21
3. O=C1CC(c2ccccc2)n2cccc21 (stereo unspecified)
4. COc1ccccc1C(=O)c1c(NCc2ccccc2)c(=O)c1=O

1: > 100 µM; 2: > 100 µM; 3: > 100 µM; 4: > 100 µM

Parameter requested: TGI. Apply to each item below.
1. Cc1cc(=O)oc2c(CNC(Cc3ccccc3)C(=O)O)c(O)ccc12 (stereo unspecified)
2. CC1=C(C)Cc2c(O)ccc(O)c2C1
3. O=C(Nc1ccc([N+](=O)[O-])cc1Cl)c1cccc([N+](=O)[O-])c1O
4. CO/N=C(\C)c1cccc(Nc2c3ccccc3nc3occc23)c1
5. CC(=O)Nc1c(C)cc2c(nc3n2CCC3O)c1[N+](=O)[O-] (stereo unspecified)
6. Oc1ccc2oc3ncc(Br)c(-c4ccccc4)c3c2c1
7. NC(N)=NS(=O)(=O)c1ccc(Nc2c3ccccc3nc3c(C(=O)Nc4ccc(S(N)(=O)=O)cc4)cccc23)cc1
8. CC(C)(C)OC(=O)N1C(c2cccnc2)=CC[C@H]2C3CC=C(c4cccnc4)[C@@]3(C)CC[C@@H]21 (stereo partly specified)

> 100 µM
27.2 µM
5.78 µM
27.7 µM
> 100 µM
> 100 µM
> 100 µM
5.05 µM

Record TGI for all entries; do not skip any.
1. CC(=O)OCc1ccc2oc(=O)c(C(=O)Oc3ccccc3)cc2c1
2. CCCCCCCCCCCCCCCCCCN(C)CC(COP(=O)([O-])OCC[N+](C)(C)C)OC (stereo unspecified)

1: > 100 µM; 2: 18.6 µM

Required: TGI, one value per compound below.
1. Cc1cc(C)c(-n2c(-c3ccc(Br)cc3)cs/c2=N\N=C2C=C(C(C)(C)C)C(=O)C(C(C)(C)C)=C2)c(C)c1
2. O=c1c2cc(Cl)ccc2sc2cccc(Cl)c12

["> 100 µM", "> 100 µM"]

Could you report TGI for every entry in the following list?
1. C[C@@H]1CC[C@@H]2[C@@H](C1)O[C@@H]([C@H](C)OCc1ccccc1)SC2(C)C
2. CC1OC(n2cc(F)c(=O)[nH]c2=O)C=CC1=O (stereo unspecified)
3. CC(C)=CC1=C2C3=C(C(=O)C4(O)Oc5c(C)c6c7c(c5OC24C)[C@@H](C)CC[C@@H]7[C@@H](C)C[C@H]6C=C(C)C)C(C)CCC3C(C)C1 (stereo partly specified)

["35.1 µM", "93.2 µM", "> 100 µM"]

For each of the compounds below, state TGI.
1. C=C(Br)CNC(=O)CCC(=O)NCC(=C)Br
2. O=C1c2ccc(O)c(O)c2C(=O)c2c(O)ccc(O)c21

["> 100 µM", "> 100 µM"]
